Test system: common (oilseed) sunflower
Assay: Test C pre-/postemergence test
Type: in vivo, Helianthus annuus
Conditions: preemergence, 125 g ai/ha; scale 0 (no effect) to 100 (complete control)
Listed next: entries and their corresponding Sunflower plant response rating.

Cn1nc(C(F)(F)F)c(CS(=O)(=O)c2ccc(Cl)c[n+]2[O-])c1OC(F)F
0
Cn1nc(C(F)(F)F)c(C[S+]([O-])c2cccc[n+]2[O-])c1Cl (centres unmarked)
60
Cn1nc(C(F)(F)F)c(C(Cl)S(=O)(=O)c2cccc[n+]2[O-])c1Cl (centres unmarked)
0
Cn1nc(C(F)(F)F)c(C[S+]([O-])c2ccc(Cl)c[n+]2[O-])c1OC(F)F (centres unmarked)
5

Indicate its recorded Sunflower plant response rating; the compound in question is Cc1cc[n+]([O-])c(S(=O)(=O)Cc2c(C(F)(F)F)nn(C)c2OC(F)F)c1 80

This collection of values is drawn from patent US20100298141A1.
